Measured pKi, listed per entry for reference.
assay-system: UniProtKB P17252
assay: Displacement of [20-3H]phorbol 12,13-dibutyrate from recombinant PKCalpha
pKi: −log10 of the molar value.
reported-endpoint: pKi

CC(C)(C)C(=O)OCC1(CO)C/C(=C\CCCCCCCCCCCO)C(=O)O1 (stereo not given) ... 7.84
CC(C)(C)C(=O)OCC1(CO)C/C(=C\CCCCCCCOC2CCCC2)C(=O)O1 (stereo not given) ... 7.99
COCOCCCCCCC/C=C1\CC(CO)(COC(=O)C(C)(C)C)OC1=O (stereo not given) ... 6.70
COCCCCCCCCCCCCCCC/C=C1\CC(CO)(COC(=O)C(C)(C)C)OC1=O (stereo not given) ... 8.36
CCCCCCCCC(O)CCCCCC/C=C1\CC(CO)(COC(=O)C(C)(C)C)OC1=O (stereo not given) ... 6.93
CC(C)(C)C(=O)OCC1(CO)C/C(=C\CCCCCCCCCCC=O)C(=O)O1 (stereo not given) ... 7.52
CC(C)(C)C(=O)OCC1(CO)C/C(=C\CCCCCCCCCCCCCCC=O)C(=O)O1 (stereo not given) ... 8.20
COC(=O)CCCCCC/C=C1\CC(CO)(COC(=O)C(C)(C)C)OC1=O (stereo not given) ... 6.27
CCCCCCCCCCCCC/C=C1/CC(CO)(COC(=O)C(C)(C)C)OC1=O (stereo not given) ... 8.15
CCCCCCCCCOCCC/C=C1\CC(CO)(COC(=O)C(C)(C)C)OC1=O (stereo not given) ... 8.13

###

Tested on: CCRF-CEM
assay: Antitumor activity against human CCRF-CEM cells
Format: functional
Measured GI50, listed per entry for reference.
reported-endpoint: GI50 (mg/L)

CCCCCCCCCCCCC/C=C1\CC(CO)(COC(=O)C(C)(C)C)OC1=O (centres undefined) ... 0.14
COc1cccc2c1C(=O)c1c(O)c3c(c(O)c1C2=O)C[C@@](O)(C(=O)CO)C[C@@H]3O[C@H]1C[C@H](N)[C@H](O)[C@H](C)O1.Cl [DOXORUBICIN HYDROCHLORIDE] ... 0.181
COCCCCCCCCCCCCCCC/C=C1\CC(CO)(COC(=O)C(C)(C)C)OC1=O (centres undefined) ... 4.26
CC(C)(C)C(=O)OCC1(CO)C/C(=C\CCCCCCCCCCCCCCC=O)C(=O)O1 (centres undefined) ... 0.933

###

assay-system: UniProt:P17252
assay: Displacement of [20-3H]phorbol 12,13-dibutyrate from recombinant PKCalpha
reported-endpoint: Ki (nM)

CC(=O)OCCCCCCCCCCCCCCC/C=C1\CC(CO)(COC(=O)C(C)(C)C)OC1=O (stereo unspecified) ... 9.3
COC(=O)CCCCCCCCCCCCCC/C=C1\CC(CO)(COC(=O)C(C)(C)C)OC1=O (stereo unspecified) ... 6.83
COCCCCCCCCCCC/C=C1\CC(CO)(COC(=O)C(C)(C)C)OC1=O (stereo unspecified) ... 8.2
CC(C)CCOCCCCCCC/C=C1\CC(CO)(COC(=O)C(C)(C)C)OC1=O (stereo unspecified) ... 7.74
CC(C)(C)C(=O)OCC1(CO)C/C(=C\CCCCCCCCCCCCCCCN)C(=O)O1 (stereo unspecified) ... 36.4
CC(C)(C)C(=O)OCC1(CO)C/C(=C\CCCCCCCCCCCCCCCO)C(=O)O1 (stereo unspecified) ... 6.4
CC(=O)NCCCCCCCCCCCCCCC/C=C1\CC(CO)(COC(=O)C(C)(C)C)OC1=O (stereo unspecified) ... 8.25
CC(C)(C)C(=O)OCCCCCCCCCCCCCCC/C=C1\CC(CO)(COC(=O)C(C)(C)C)OC1=O (stereo unspecified) ... 10.5
CC(C)(C)C(=O)OCC1(CO)C/C(=C\CCCCCCCO)C(=O)O1 (stereo unspecified) ... 378
COCCCCCCCCCCCCCCC/C=C1/CC(CO)(COC(=O)C(C)(C)C)OC1=O (stereo unspecified) ... 5
CC(C)(C)C(=O)OCC1(CO)C/C(=C\CCCCCCCCCCCCCCCOC=O)C(=O)O1 (stereo unspecified) ... 8
CC(C)(C)C(=O)OCC1(CO)C/C(=C/CCCCCCCCCCCCCCC=O)C(=O)O1 (stereo unspecified) ... 11.4
CC(C)(C)C(=O)OCC1(CO)C/C(=C\CCCCCCC=O)C(=O)O1 (stereo unspecified) ... 39.3
COCCCCCCC/C=C1\CC(CO)(COC(=O)C(C)(C)C)OC1=O (stereo unspecified) ... 191
CC(C)(C)C(=O)OCC1(CO)C/C(=C/CCCCCCCCCCCCCCCO)C(=O)O1 (stereo unspecified) ... 8.24
CCCCCCCCCCCCC/C=C1\CC(CO)(COC(=O)C(C)(C)C)OC1=O (stereo unspecified) ... 7.83
COCCOCOCCCCCCC/C=C1\CC(CO)(COC(=O)C(C)(C)C)OC1=O (stereo unspecified) ... 323
CC(C)(C)C(=O)OCC1(CO)C/C(=C\CCCCCCCCCCCCCCCN=[N+]=[N-])C(=O)O1 (stereo unspecified) ... 15.6
CCCCCCCCCOCCCCCCC/C=C1\CC(CO)(COC(=O)C(C)(C)C)OC1=O (stereo unspecified) ... 3.2
CCCCCOCCCCCCC/C=C1\CC(CO)(COC(=O)C(C)(C)C)OC1=O (stereo unspecified) ... 8.1
CC(C)(C)C(=O)OCC1(CO)C/C(=C\CCCCCCCCCCCCCCC(=O)O)C(=O)O1 (stereo unspecified) ... 29.7

###

System: SK-MEL-5
assay: Antitumor activity against human SK-MEL-5 cells
Format: functional
# 1 = GI50 below 3 µg/mL (exclusive); -1 = GI50 at/above 3 µg/mL

COCCCCCCCCCCC/C=C1\CC(CO)(COC(=O)C(C)(C)C)OC1=O (stereo not drawn) ... 1
CC(C)(C)C(=O)OCC1(CO)C/C(=C\CCCCCCCCCCCO)C(=O)O1 (stereo not drawn) ... -1
COCCCCCCCCCCCCCCC/C=C1\CC(CO)(COC(=O)C(C)(C)C)OC1=O (stereo not drawn) ... 1
CC(C)(C)C(=O)OCCCCCCCCCCCCCCC/C=C1\CC(CO)(COC(=O)C(C)(C)C)OC1=O (stereo not drawn) ... -1
COc1cccc2c1C(=O)c1c(O)c3c(c(O)c1C2=O)C[C@@](O)(C(=O)CO)C[C@@H]3O[C@H]1C[C@H](N)[C@H](O)[C@H](C)O1.Cl [DOXORUBICIN HYDROCHLORIDE] ... 1
CC(C)(C)C(=O)OCC1(CO)C/C(=C/CCCCCCCCCCCCCCC=O)C(=O)O1 (stereo not drawn) ... -1
CC(=O)NCCCCCCCCCCCCCCC/C=C1\CC(CO)(COC(=O)C(C)(C)C)OC1=O (stereo not drawn) ... -1
COCCCCCCCCCCCCCCC/C=C1/CC(CO)(COC(=O)C(C)(C)C)OC1=O (stereo not drawn) ... 1
COCOCCCCCCC/C=C1\CC(CO)(COC(=O)C(C)(C)C)OC1=O (stereo not drawn) ... -1
CCCCCCCCC(O)CCCCCC/C=C1\CC(CO)(COC(=O)C(C)(C)C)OC1=O (stereo not drawn) ... -1
CC(C)(C)C(=O)OCC1(CO)C/C(=C/CCCCCCCCCCCCCCCO)C(=O)O1 (stereo not drawn) ... -1
COC(=O)CCCCCCCCCCCCCC/C=C1\CC(CO)(COC(=O)C(C)(C)C)OC1=O (stereo not drawn) ... -1
CC(C)(C)C(=O)OCC1(CO)C/C(=C\CCCCCCCCCCCCCCC=O)C(=O)O1 (stereo not drawn) ... -1
CCCCCCCCCCCCC/C=C1\CC(CO)(COC(=O)C(C)(C)C)OC1=O (stereo not drawn) ... 1
CCCCCCCCCOCCCCCCC/C=C1\CC(CO)(COC(=O)C(C)(C)C)OC1=O (stereo not drawn) ... 1
CC(C)(C)C(=O)OCC1(CO)C/C(=C\CCCCCCCCCCCCCCCN)C(=O)O1 (stereo not drawn) ... -1
CC(=O)OCCCCCCCCCCCCCCC/C=C1\CC(CO)(COC(=O)C(C)(C)C)OC1=O (stereo not drawn) ... -1

###

assay: Antitumor activity against human NCI-H322 cells
Format: functional
reported-endpoint: GI50

CC(C)(C)C(=O)OCCCCCCCCCCCCCCC/C=C1\CC(CO)(COC(=O)C(C)(C)C)OC1=O (stereo not drawn) ... > 10 µg/mL
COC(=O)CCCCCCCCCCCCCC/C=C1\CC(CO)(COC(=O)C(C)(C)C)OC1=O (stereo not drawn) ... > 10 µg/mL
COCOCCCCCCC/C=C1\CC(CO)(COC(=O)C(C)(C)C)OC1=O (stereo not drawn) ... > 10 µg/mL
CCCCCCCCCCCCC/C=C1\CC(CO)(COC(=O)C(C)(C)C)OC1=O (stereo not drawn) ... > 10 µg/mL
CC(C)(C)C(=O)OCC1(CO)C/C(=C\CCCCCCCCCCCO)C(=O)O1 (stereo not drawn) ... > 10 µg/mL
CC(C)(C)C(=O)OCC1(CO)C/C(=C\CCCCCCCCCCCCCCCN)C(=O)O1 (stereo not drawn) ... 8.43 µg/mL
CC(C)(C)C(=O)OCC1(CO)C/C(=C/CCCCCCCCCCCCCCCO)C(=O)O1 (stereo not drawn) ... > 10 µg/mL
CC(=O)NCCCCCCCCCCCCCCC/C=C1\CC(CO)(COC(=O)C(C)(C)C)OC1=O (stereo not drawn) ... > 10 µg/mL
CCCCCCCCC(O)CCCCCC/C=C1\CC(CO)(COC(=O)C(C)(C)C)OC1=O (stereo not drawn) ... > 10 µg/mL
COCCCCCCCCCCC/C=C1\CC(CO)(COC(=O)C(C)(C)C)OC1=O (stereo not drawn) ... > 10 µg/mL
COCCCCCCCCCCCCCCC/C=C1\CC(CO)(COC(=O)C(C)(C)C)OC1=O (stereo not drawn) ... > 10 µg/mL
COc1cccc2c1C(=O)c1c(O)c3c(c(O)c1C2=O)C[C@@](O)(C(=O)CO)C[C@@H]3O[C@H]1C[C@H](N)[C@H](O)[C@H](C)O1.Cl [DOXORUBICIN HYDROCHLORIDE] ... 0.615 µg/mL
COCCCCCCCCCCCCCCC/C=C1/CC(CO)(COC(=O)C(C)(C)C)OC1=O (stereo not drawn) ... > 10 µg/mL
CC(=O)OCCCCCCCCCCCCCCC/C=C1\CC(CO)(COC(=O)C(C)(C)C)OC1=O (stereo not drawn) ... > 10 µg/mL
CC(C)(C)C(=O)OCC1(CO)C/C(=C\CCCCCCCCCCCCCCC=O)C(=O)O1 (stereo not drawn) ... > 10 µg/mL
CCCCCCCCCOCCCCCCC/C=C1\CC(CO)(COC(=O)C(C)(C)C)OC1=O (stereo not drawn) ... > 10 µg/mL
CCCCCOCCCCCCC/C=C1\CC(CO)(COC(=O)C(C)(C)C)OC1=O (stereo not drawn) ... 9.52 µg/mL
CC(C)(C)C(=O)OCC1(CO)C/C(=C/CCCCCCCCCCCCCCC=O)C(=O)O1 (stereo not drawn) ... > 10 µg/mL
